Reference source: paper PMC5114558

- TARGET: T1, KDM4C double tudor domain (KDM4C-DTD), HaloTag-tagged, wild type (human, UniProt Q9H3R0 877-991)
- T1 chain: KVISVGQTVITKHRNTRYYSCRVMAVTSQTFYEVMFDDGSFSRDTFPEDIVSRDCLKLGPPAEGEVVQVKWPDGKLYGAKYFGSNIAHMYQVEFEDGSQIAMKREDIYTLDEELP
- PROTOCOL_NOTES: FP
No end group written: not given here.
TEST_READOUT: Kd (µM)

INSERT INTO results (binder, test_result) VALUES
  ('RKQLATK(Me3)AARKSAPAT (also: fluorescein label, end not given here) [H3 (17-32) K23me3 peptide, fluorescein-labelled]', 73.6),
  ('AKRHRK(Me3)VLRDN (also: fluorescein label, end not given here) [H4K20me3 peptide, fluorescein-labelled]', 58.7),
  ('ARKSTGGK(Me3)APRKQLATK (also: fluorescein label, end not given here) [H3K14me3 peptide, fluorescein-labelled]', 166);
